Test system: Ischemic Isolated Rat Heart
experiment-notes: Globally ischemic isolated perfused rat heart (Langendorff), protective effect
Design: species or system Male Sprague-Dawley rats
run-conditions: 10 µM, after 10 minutes drug treatment, before ischemia; n = 4
Listing of recorded LVDP (Left Ventricular Developed Pressure), Pre-ischemic Event (Post Drug) by entry.
The response must be a number in mmHg with no trailing unit.

Below, each entry is followed by its recorded LVDP (Left Ventricular Developed Pressure), Pre-ischemic Event (Post Drug) result.
>  <molecule>
CC1(C)Oc2ccc(C#N)cc2[C@@H](NC(=S)Nc2ccccc2)[C@@H]1O

>  <endpoint-unit>
mmHg

>  <number>
141

$$$$
>  <molecule>
CC1(C)Oc2ccc(C#N)cc2[C@@H](NC(=NC#N)Oc2ccccc2)[C@@H]1O

>  <endpoint-unit>
mmHg

>  <number>
128

$$$$
>  <molecule>
CC1(C)Oc2ccc(C#N)cc2[C@@H](NC(=NC#N)Nc2ccccc2)[C@@H]1O

>  <endpoint-unit>
mmHg

>  <number>
134

$$$$

Proceeding to the next molecule to report its LVDP (Left Ventricular Developed Pressure), Pre-ischemic Event (Post Drug).
Form field LVDP (Left Ventricular Developed Pressure), Pre-ischemic Event (Post Drug), entry CC1(C)Oc2ccc(C#N)cc2C(N2CCCC2=O)C1O (stereo not shown) [Cromakalim, cromakalim, reference compound] : 131

---

The following compounds are listed with their measured LDH (Lactate Dehydrogenase Release), Reperfusion (Post-Ischemic Event) values.
Test system: Ischemic Isolated Rat Heart
experiment-notes: Globally ischemic isolated perfused rat heart (Langendorff), protective effect
Parameters: species or system Male Sprague-Dawley rats; unit not given here
run-conditions: 10 µM; occlusion 25 minutes, reperfusion 30 minutes; lower = greater cardioprotection
Keep the answer to the number alone.

Some entries whose results are on file:
>  <compound>
CC1(C)Oc2ccc(C#N)cc2[C@@H](NC(=S)Nc2ccccc2)[C@@H]1O [E']

>  <number>
13.46

$$$$
>  <compound>
CC1(C)Oc2ccc(C#N)cc2[C@@H](NC(=NC#N)Oc2ccccc2)[C@@H]1O [F']

>  <number>
21.7

$$$$
>  <compound>
CC1(C)Oc2ccc(C#N)cc2[C@@H](NC(=NC#N)Nc2ccccc2)[C@@H]1O [C'"]

>  <number>
10.41

$$$$

Attention now shifts to the item below.
Lab note: CC1(C)Oc2ccc(C#N)cc2C(N2CCCC2=O)C1O (stereo not shown) [Cromakalim, cromakalim, reference compound] gave LDH (Lactate Dehydrogenase Release), Reperfusion (Post-Ischemic Event) of 8.89
